System: NCI-H23 lung
procedure.summary: NCI-60 one-dose screen, 48 h
condition.notes: 10 µM unless noted
This is part of a sample that, as a whole, favours compounds with a hit. Of some 83,000 tested, about 20% had one in any assay. Active and inactive are the calls of the source. Rule for the calls: active = growth percent below 10; inactive = the rest.
Mark one answer only. Choices: TRUE = active, FALSE = inactive

Q: Dear colleague, could you share the recorded outcome for Nc1nc(-c2ccc(F)cc2)cc(-c2cnn(-c3ccccc3)n2)n1 when you have a moment?
Ans: FALSE

Q: Dear colleague, could you share the recorded outcome for O=C(Cn1cc(CN2C(=O)c3ccccc3S2(=O)=O)nn1)Nc1ccc([N+](=O)[O-])cc1Cl when you have a moment?
Ans: FALSE

Q: Dear colleague, could you share the recorded outcome for O=C(N/N=C/c1ccc(O)cc1O)c1cccnc1 when you have a moment?
Ans: FALSE

Q: Dear colleague, could you share the recorded outcome for O=c1c2cccc3c(NC4CCCCC4)ccc(c32)c2nc3ccccc3n12 when you have a moment?
Ans: FALSE

Q: Dear colleague, could you share the recorded outcome for CCCC(=O)Oc1ccc(/C(=C(/CC)Cc2ccccc2)c2ccc(OCCN3CCCC3)cc2)cc1 when you have a moment?
Ans: FALSE

Q: Dear colleague, could you share the recorded outcome for COc1ccccc1N1CCN(CCn2c(=O)c3c(c4ccccc4n3C)n(C)c2=O)CC1 when you have a moment?
Ans: FALSE

Q: Dear colleague, could you share the recorded outcome for CCCCCN(CCCCC)CCC[C@@H](C)[C@H]1CC[C@H]2[C@@H]3[C@H](OCCCN)C[C@@H]4C[C@H](OCCCN)CC[C@]4(C)[C@H]3C[C@H](OCCCN)[C@]12C when you have a moment?
Ans: FALSE

Q: Dear colleague, could you share the recorded outcome for Cc1ccc2c(c1)O/C(=C\c1cccc(OCC(=O)c3ccccc3)c1)C2=O when you have a moment?
Ans: FALSE

Q: Dear colleague, could you share the recorded outcome for CCC(=O)OCc1cccc(OC)c1 when you have a moment?
Ans: FALSE

Q: Dear colleague, could you share the recorded outcome for Cc1sc2nc3[nH]/c(=C\c4ccc(Cl)cc4)c(=O)n3c(=O)c2c1C when you have a moment?
Ans: FALSE

Q: Dear colleague, could you share the recorded outcome for COc1cnc2c(c1)C(=O)c1c-2n(CCCBr)c(=O)c2cc([N+](=O)[O-])ccc12 when you have a moment?
Ans: TRUE

Q: Dear colleague, could you share the recorded outcome for O=C1OC2C(I)C3CC2C1C3c1ccccc1 (centres undefined) when you have a moment?
Ans: FALSE

Q: Dear colleague, could you share the recorded outcome for COc1ccc(C(=O)c2sc3nc4c(c(C(F)(F)F)c3c2N)CN(C(C)=O)CC4)cc1OC when you have a moment?
Ans: FALSE

Q: Dear colleague, could you share the recorded outcome for O=C1/C(=C/c2ccc(Cl)c(Cl)c2)CN(C(=O)CCN2CCC(=NO)CC2)C/C1=C\c1ccc(Cl)c(Cl)c1 when you have a moment?
Ans: TRUE

Q: Dear colleague, could you share the recorded outcome for O=C(COCc1c(-c2ccccc2)no[n+]1[O-])Nc1ccc(C(=O)/C=C/c2ccc3c(c2)OCO3)cc1 when you have a moment?
Ans: FALSE

Q: Dear colleague, could you share the recorded outcome for O=C(CN1CCN(c2cc3c(cc2F)c(=O)c(C(=O)O)cn3C2CC2)CC1)Nc1nc(-c2ccc(Cl)cc2)cs1 when you have a moment?
Ans: FALSE

Q: Dear colleague, could you share the recorded outcome for CN1CCN(Cc2ccc(NC(=O)c3cncc(C#Cc4cnc(N)c5cccnc45)c3)cc2C(F)(F)F)CC1 when you have a moment?
Ans: FALSE

Q: Dear colleague, could you share the recorded outcome for C=C1CC2(OC1=O)C(=O)N(CCCCCCCN1C(=O)C3(CC(=C)C(=O)O3)c3ccccc31)c1ccccc12 (centres undefined) when you have a moment?
Ans: FALSE

Q: Dear colleague, could you share the recorded outcome for CS(=O)(=O)c1ccc(-c2cnc3ccc(-c4cccc(S(C)(=O)=O)c4)nn23)cc1 when you have a moment?
Ans: FALSE

The reported measurements were obtained from PubChem BioAssay (NCI).
